- System: Pichia kudriavzevii
- Assay Method Text: Antifungal activity against Candida krusei ATCC 6258 measured after 48 hrs by CLSI M27-A3 protocol based method
- Format: functional
- Condition Context: Pichia kudriavzevii, ATCC 6258, 48 h
Result Type: MIC (µM)
Quick reminder: number only, in µM, skip the unit.

Molecule	Reading Unit	MIC
CCCCCCCCCCNCC(O)(Cn1cncn1)c1ccc(F)cc1F (stereo not drawn)	µM	1.2
CCCCCCCCCCCCCCCCNCC(O)(Cn1cncn1)c1ccc(F)cc1F (stereo not drawn)	µM	8.1
CC[C@H](C)C[C@H](C)CCCCCCCCC(=O)N[C@H]1C[C@@H](O)[C@@H](NCCN)NC(=O)[C@@H]2[C@@H](O)CCN2C(=O)[C@H]([C@H](O)CCN)NC(=O)[C@H]([C@H](O)[C@@H](O)c2ccc(O)cc2)NC(=O)[C@@H]2C[C@@H](O)CN2C(=O)[C@H]([C@@H](C)O)NC1=O	µM	0.4
CCCCCCNCC(O)(Cn1cncn1)c1ccc(F)cc1F (stereo not drawn)	µM	23
OC(CNC1CCCCCCC1)(Cn1cncn1)c1ccc(F)cc1F (stereo not drawn)	µM	85.8
CCCCCCCCCCCCCCNCC(O)(Cn1cncn1)c1ccc(F)cc1F (stereo not drawn)	µM	8.7

Attention now shifts to the item below.
Quickly give me recorded MIC for CCCCCCCCNCC(O)(Cn1cncn1)c1ccc(F)cc1F (stereo not drawn)
2.7

Data origin, for the record: ChEMBL document CHEMBL4118101
